- testedOn: Sialidase-3 (Homo sapiens)
- Sequence (Q9UQ49 whole entry): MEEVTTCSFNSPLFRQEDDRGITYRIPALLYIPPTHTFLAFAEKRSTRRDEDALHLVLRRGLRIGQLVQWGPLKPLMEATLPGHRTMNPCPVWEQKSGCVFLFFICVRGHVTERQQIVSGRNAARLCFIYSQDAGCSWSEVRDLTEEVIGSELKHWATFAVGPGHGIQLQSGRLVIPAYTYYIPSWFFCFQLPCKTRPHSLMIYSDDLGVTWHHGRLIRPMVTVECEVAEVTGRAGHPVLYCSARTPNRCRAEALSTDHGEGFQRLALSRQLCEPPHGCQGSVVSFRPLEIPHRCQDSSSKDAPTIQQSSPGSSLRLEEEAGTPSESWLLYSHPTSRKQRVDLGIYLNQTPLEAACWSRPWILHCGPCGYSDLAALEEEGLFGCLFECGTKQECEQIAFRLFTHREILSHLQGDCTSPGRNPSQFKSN
- assayProcedure: Inhibition of Homo sapiens (human) NEU3 expressed in HEK293 cells using mixed ganglioside as substrate after 10 to 30 min by fluorometric analysis
recordedMetric: IC50

molSmiles: CC(=O)N[C@H]1[C@H]([C@@H](O)[C@@H](O)CO)OC(C(=O)O)=C[C@@H]1O
testedOn: Sialidase-3 (Homo sapiens)
recordedMetric: IC50
result: 60 µM
--
molSmiles: O=C(O)c1oc(C(=O)O)c(OCc2ccccc2)c1OCc1ccccc1
testedOn: Sialidase-3 (Homo sapiens)
recordedMetric: IC50
result: 920 µM
--
molSmiles: CC(=O)Nc1cc(F)c(C(=O)O)cc1NC(=O)c1ccc(-c2ccccc2)cc1
testedOn: Sialidase-3 (Homo sapiens)
recordedMetric: IC50
result: > 5000 µM
